Kindly supply the reported IC50 values for the records listed here.
Target: LPA2R (Homo sapiens, UniProt Q9HBW0)
Construct: expressed in transfected cells; host or cells: U2OS
Sequence (Q9HBW0 whole entry): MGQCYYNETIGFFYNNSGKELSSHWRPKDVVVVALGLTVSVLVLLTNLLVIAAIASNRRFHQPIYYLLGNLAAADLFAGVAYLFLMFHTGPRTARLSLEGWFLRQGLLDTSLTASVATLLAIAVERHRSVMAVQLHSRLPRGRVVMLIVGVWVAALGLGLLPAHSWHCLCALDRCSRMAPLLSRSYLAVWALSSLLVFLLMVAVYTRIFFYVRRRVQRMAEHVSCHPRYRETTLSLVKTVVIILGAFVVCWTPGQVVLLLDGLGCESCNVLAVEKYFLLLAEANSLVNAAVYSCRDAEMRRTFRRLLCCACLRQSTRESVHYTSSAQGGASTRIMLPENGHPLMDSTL
Experiment: LPA2R-Calciumflux assay (FLIPR, intracellular calcium mobilisation after LPA)
Format: cell-based
Details: U2OS cells recombinant expressing LPA2R; antagonism of LPA-induced calcium flux; racemate of the two trans enantiomers unless marked enantiomer

Lookup: Give IC50 (LPA2R (Homo sapiens, UniProt Q9HBW0)) of the following compound: O=C(Nc1nc2cc(OCCN3CCCC3)ccc2[nH]1)C1CC1c1ccccc1 (single isomer, unassigned; enantiomer-2)
Found: 1000 to 10000 nM

Lookup: Give IC50 (LPA2R (Homo sapiens, UniProt Q9HBW0)) of the following compound: Nc1cccc2[nH]c(NC(=O)C3CC3c3ccccc3)nc12 (racemic)
Found: 10 to 100 nM

Lookup: Give IC50 (LPA2R (Homo sapiens, UniProt Q9HBW0)) of the following compound: N#Cc1ccc2nc(NC(=O)C3CC3c3cccc(F)c3)[nH]c2c1 (racemic)
Found: < 10 nM

Lookup: Give IC50 (LPA2R (Homo sapiens, UniProt Q9HBW0)) of the following compound: COc1cccc(C2CC2C(=O)Nc2nc3ccccc3[nH]2)c1 (racemic)
Found: > 10000 nM

Lookup: Give IC50 (LPA2R (Homo sapiens, UniProt Q9HBW0)) of the following compound: O=C(Nc1nc2ccccc2[nH]1)C1CC1c1cc(Br)ccc1F (racemic)
Found: 10 to 100 nM

Lookup: Give IC50 (LPA2R (Homo sapiens, UniProt Q9HBW0)) of the following compound: Cc1cc2nc(NC(=O)C3CC3c3ccccc3)[nH]c2cc1C (racemic)
Found: 10 to 100 nM

Lookup: Give IC50 (LPA2R (Homo sapiens, UniProt Q9HBW0)) of the following compound: CN(C)c1ccc(C2CC2C(=O)Nc2nc3ccccc3[nH]2)cc1 (racemic)
Found: 1000 to 10000 nM

Lookup: Give IC50 (LPA2R (Homo sapiens, UniProt Q9HBW0)) of the following compound: O=C(Nc1nc2ccccc2[nH]1)C1CC1c1ccccc1C(F)(F)F (racemic)
Found: > 10000 nM

Lookup: Give IC50 (LPA2R (Homo sapiens, UniProt Q9HBW0)) of the following compound: CCCS(=O)(=O)c1ccc2[nH]c(NC(=O)C3CC3c3ccccc3)nc2c1 (racemic)
Found: 1000 to 10000 nM

Lookup: Give IC50 (LPA2R (Homo sapiens, UniProt Q9HBW0)) of the following compound: O=C(Nc1n[nH]c2ccccc12)C1CC1c1ccccc1 (racemic)
Found: > 10000 nM

Lookup: Give IC50 (LPA2R (Homo sapiens, UniProt Q9HBW0)) of the following compound: O=C(Nc1nc2cc(Cl)cnc2[nH]1)C1CC1c1ccccc1 (single isomer, unassigned; enantiomer-2)
Found: < 10 nM

Lookup: Give IC50 (LPA2R (Homo sapiens, UniProt Q9HBW0)) of the following compound: O=C(Nc1nc2ccccc2[nH]1)C1C(c2ccccc2)C1(F)F (racemic)
Found: 100 to 1000 nM

Lookup: Give IC50 (LPA2R (Homo sapiens, UniProt Q9HBW0)) of the following compound: O=C(Nc1nc2ccc(Cl)cc2[nH]1)C1CC1c1ccccc1Cl (single isomer, unassigned; enantiomer-2)
Found: 100 to 1000 nM

Lookup: Give IC50 (LPA2R (Homo sapiens, UniProt Q9HBW0)) of the following compound: O=C(Nc1nc2ccncc2[nH]1)C1CC1c1ccccc1 (racemic)
Found: > 10000 nM

Lookup: Give IC50 (LPA2R (Homo sapiens, UniProt Q9HBW0)) of the following compound: N#Cc1ccc2nc(NC(=O)C3CC3c3ccccc3)[nH]c2c1 (single isomer, unassigned; enantiomer-2) [drawing 72]
Found: 1000 to 10000 nM

Lookup: Give IC50 (LPA2R (Homo sapiens, UniProt Q9HBW0)) of the following compound: O=C(Nc1nc2ccc(C(F)(F)F)cc2[nH]1)C1CC1c1ccccc1Cl (racemic)
Found: 10 to 100 nM

Lookup: Give IC50 (LPA2R (Homo sapiens, UniProt Q9HBW0)) of the following compound: CC1(C)C(C(=O)Nc2nc3ccc(C#N)cc3[nH]2)C1c1ccccc1 (racemic)
Found: > 10000 nM

Lookup: Give IC50 (LPA2R (Homo sapiens, UniProt Q9HBW0)) of the following compound: COC(=O)c1cccc2[nH]c(NC(=O)C3CC3c3ccccc3)nc12 (racemic)
Found: 100 to 1000 nM

Lookup: Give IC50 (LPA2R (Homo sapiens, UniProt Q9HBW0)) of the following compound: O=C(Nc1nc2ccccc2[nH]1)C1CC1c1cccc(F)c1 (racemic)
Found: 10 to 100 nM

Lookup: Give IC50 (LPA2R (Homo sapiens, UniProt Q9HBW0)) of the following compound: O=C(Nc1nc2cc(Cl)cnc2[nH]1)[C@@H]1C[C@H]1c1ccccc1 (single isomer, unassigned)
Found: 1000 to 10000 nM

Lookup: Give IC50 (LPA2R (Homo sapiens, UniProt Q9HBW0)) of the following compound: O=C(Nc1nc2c([N+](=O)[O-])cccc2[nH]1)C1CC1c1ccccc1 (racemic)
Found: 10 to 100 nM

Lookup: Give IC50 (LPA2R (Homo sapiens, UniProt Q9HBW0)) of the following compound: O=C(Nc1nc2ccccc2[nH]1)C1CC1c1ccc(F)cc1 (racemic)
Found: 10 to 100 nM

Lookup: Give IC50 (LPA2R (Homo sapiens, UniProt Q9HBW0)) of the following compound: Cc1cccc2nc(NC(=O)C3CC3c3ccccc3)[nH]c12 (racemic)
Found: 100 to 1000 nM
